# Measured On: Human 5-lipoxygenase (Homo sapiens, UniProt P09917)
# Construct: purchased Cayman 60402; host or cells: insect cells
# Sequence (P09917 whole entry): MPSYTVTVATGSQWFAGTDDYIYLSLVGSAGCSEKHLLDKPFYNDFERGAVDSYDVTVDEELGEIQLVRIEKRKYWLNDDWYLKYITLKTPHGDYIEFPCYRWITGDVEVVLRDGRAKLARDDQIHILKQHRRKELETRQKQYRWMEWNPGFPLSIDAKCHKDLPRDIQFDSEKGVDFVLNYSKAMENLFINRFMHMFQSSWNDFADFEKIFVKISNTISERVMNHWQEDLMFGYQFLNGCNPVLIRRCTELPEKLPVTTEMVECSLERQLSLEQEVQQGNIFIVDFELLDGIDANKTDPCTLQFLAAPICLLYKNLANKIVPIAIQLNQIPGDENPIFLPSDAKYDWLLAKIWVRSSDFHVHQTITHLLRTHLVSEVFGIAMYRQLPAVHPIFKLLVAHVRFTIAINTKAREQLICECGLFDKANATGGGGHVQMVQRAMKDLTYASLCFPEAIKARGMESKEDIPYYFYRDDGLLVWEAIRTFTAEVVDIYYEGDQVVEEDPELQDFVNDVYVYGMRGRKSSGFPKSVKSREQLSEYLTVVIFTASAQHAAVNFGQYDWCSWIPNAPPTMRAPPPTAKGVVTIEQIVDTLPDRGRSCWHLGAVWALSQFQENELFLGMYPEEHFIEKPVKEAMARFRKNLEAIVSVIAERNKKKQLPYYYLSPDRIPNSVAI
# Assay: Activity of compounds against 5-LO enzyme (LTB4 measurement and/or fluorescence method)
# Format: biochemical
# Measurement Parameters: 5-LO, single concentration of 10 uM in duplicate
Quantity Name: inhibition at 10 µM

# returns recorded inhibition at 10 µM (system: Human 5-lipoxygenase (Homo sapiens, UniProt P09917)) for CCc1nc2ccc(Cl)cn2c1CNc1ccc(N2CCN(c3ccc(F)cc3)CC2)cc1
> 69%

Another molecule to look at: CCc1nc2ccc(Cl)cn2c1C(=O)NCc1ccc(C2CCOCC2)cc1
< 40%

Can you check CCc1nc2ccc(Cl)cn2c1CNC1CCN(Cc2ccccc2)C1 (stereo not drawn) next?
< 40%

Repeat for the following molecule: CCc1nc2ccc(Cl)cn2c1C(=O)NCc1ccc2c(ccn2C)c1
< 40%

What do we get for CCc1nc2cc(Cl)ccn2c1C(=O)NCc1ccc(-c2ccc(Cl)cc2)cc1 ?
40 to 69%

Try this molecule next: CCc1nc2ccccn2c1C(=O)NCc1ccc(N2CCN(c3ccc(OC(F)(F)F)cc3)CC2)cc1
> 69%

Note, next up: COC(=O)c1ccc(CNC(=O)c2c(C)nc3ccccn23)cc1
< 40%

Another molecule to look at: CCc1nc2ccc(Cl)cn2c1C(=O)NCc1ccc2ccccc2c1
< 40%

Now consider CCc1nc2cc(Cl)ccn2c1C(=O)NCc1ccc(N2CC=CCC2)cc1 .
> 69%
